System: SARS-CoV-2 isolate USA-WA1/2020
Conditions: read-out: cytopathic effect, % cell viability; [inhibitor] 5.00 uM; duplicate wells; 5 µM
MEASURED_ATTRIBUTE: inhibition (%)
Answers are plain numbers, in %.

**Q:** Test system SARS-CoV-2 isolate USA-WA1/2020; read-out inhibition; what value for CCC(CC)COC(=O)[C@H](C)N[P@](=O)(OC[C@H]1O[C@@](C#N)(c2ccc3c(N)ncnn23)[C@H](O)[C@@H]1O)Oc1ccccc1 [remdesivir, reference compound] ?
**A:** 97.3

----------
Tested on: SARS-CoV-2 isolate USA-WA1/2020
Assay: microbe, parasite or virus in culture
Details: Severe acute respiratory syndrome coronavirus 2, Vero C1008, read-out: cytopathic effect, % cell viability, [inhibitor] 8.33 uM; duplicate wells
MEASURED_ATTRIBUTE: inhibition at 8.33 µM (%)
One number for each entry, in %.

Worked examples follow.
C[C@@H](NC(=O)c1ccccc1CCC(=O)NN)c1cccc2ccccc12 [Compound 5]	8.24
CC(=O)Nc1ccc(C)c(C(=O)N[C@H](C)c2cccc3ccccc23)c1 [Compound 15]	5.51
C[C@@H](NC(=O)c1ccccc1CCC(=O)NNC(=O)CCl)c1cccc2ccccc12 [Compound 9]	26.9

Kindly consider the entry below.
**Q:** Which inhibition at 8.33 µM value is on record for COC(=O)/C=C/C(=O)NNC(=O)CCc1ccc(NC(C)=O)cc1C(=O)N[C@H](C)c1cccc2ccccc12 [Compound 8] ?
**A:** 4.63

----------
Assay: in vitro
Conditions: African green monkey
MEASURED_ATTRIBUTE: cytotoxicity at 0.1 µM

**Q:** Entry COC(=O)/C=C/C(=O)NNC(=O)CCc1ccccc1C(=O)N[C@H](C)c1cccc2ccccc12 : reported cytotoxicity at 0.1 µM = ?
**A:** 1.1%

----------
Tested on: Caco-2 cells
Conditions: Caco-2, Omicron rows
MEASURED_ATTRIBUTE: CC50

O=c1nc(NO)ccn1[C@@H]1O[C@H](CO)[C@@H](O)[C@H]1O	> 100 µM

Shift focus to the following entry.
**Q:** So what's the measured CC50 for this one? COC(=O)/C=C/C(=O)NNC(=O)CCc1ccccc1C(=O)N[C@H](C)c1cccc2ccccc12
**A:** > 10 µM

----------
Assay: in vitro
Details: human, Percent Cytotoxicity (Neutral Red), Caco-2; SARS2-740 (Delta set); 1 µM
MEASURED_ATTRIBUTE: cytotoxicity at 1 µM (%)
Answers are plain numbers, in %.

**Q:** Please report the recorded cytotoxicity at 1 µM for COC(=O)/C=C/C(=O)NNC(=O)CCc1ccccc1C(=O)N[C@H](C)c1cccc2ccccc12 .
**A:** 8

----------
Assay: Cytotoxicity in uninfected Vero E6 cells, CellTiter-Glo
Settings: African green monkey, % cell viability, cytotoxicity, 16.65 uM
MEASURED_ATTRIBUTE: viability at 48 h, 16.65 µM (%)
Give bare numbers, in %.

**Q:** Look up viability at 48 h, 16.65 µM for this molecule: COC(=O)/C=C/C(=O)NNC(=O)CCc1ccccc1C(=O)N[C@H](C)c1cccc2ccccc12
**A:** 95.7

----------
Assay: in vitro
Conditions: African green monkey, Percent Cytotoxicity (Neutral Red), Vero E6; SARS2-733 (Delta set); 1 µM
MEASURED_ATTRIBUTE: cytotoxicity at 1 µM (%)
One number for each entry, in %.

**Q:** Please report the recorded cytotoxicity at 1 µM for COC(=O)/C=C/C(=O)NNC(=O)CCc1ccccc1C(=O)N[C@H](C)c1cccc2ccccc12 .
**A:** 4.8

Cited source: paper PMC10044120
